Target: DtabGOBP2 (Dendrolimus tabulaeformis)
Sequence (A0A059PCR0 entry or part of it): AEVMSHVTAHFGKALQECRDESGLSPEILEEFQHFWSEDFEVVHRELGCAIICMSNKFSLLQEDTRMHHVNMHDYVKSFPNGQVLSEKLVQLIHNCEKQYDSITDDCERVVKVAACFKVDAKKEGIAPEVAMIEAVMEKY
Assay: Fluorescence titration of protein with 1-NPN (Scatchard plot), DtabGOBP2
Type: binding
Settings: 2 μM protein, 50 mM Tris–HCl pH 7.4, Scatchard plot, read-out: dissociation constant (Kd) of 1-NPN
MEASUREMENT_NAME: Kd (µM)
Could you give me the number in µM? Just the number is fine.

Incoming: What value of measured Kd is listed for c1ccc(Nc2cccc3ccccc23)cc1 [1-NPN] ?
Outgoing: 8.5

----------
Biological target: DtabPBP1 (Dendrolimus tabulaeformis)
Assay: Competitive fluorescence binding assay (displacement of 1-NPN), DtabPBP1
Settings: pH 7.4, read-out: %of max±SE
Method: Emission fluorescence spectra were performed on an F-4500 fluorescence Spectrophotometer (Hitachi, Japan) at 25 °C with a 1 cm light path quartz cuvette and 5 nm slits for both excitation and emission. […] The fluorescence of the mixture was recorded after 5 min to allow the signal to stabilize. […] To understand the ligand binding properties of the three OBPs, we prepared the recombinant proteins. […] The probe was excited at 337 nm, and emission spectra were recorded between 380 and 450 nm. […]
Field: activity at 16 µM. Provide a value for each of the compounds that follow.
Could you give me the number in %? Just the number is fine.

Incoming: What value of measured activity at 16 µM is listed for CC/C=C\CCO [(Z)-3-Hexen-1-ol, (Z)-3-hexen-1-ol] ?
Outgoing: 94.6

Incoming: Also check CC1=CCC(C(C)C)=CC1 [γ-Terpinene, γ-terpinene]
Outgoing: 88.1

Incoming: Also check CC1=CC=C(C(C)C)CC1 [α-Terpinene, α-terpinene]
Outgoing: 86.7

Incoming: Also check C=C1C2CCC(C2)C1(C)C (stereo not shown) [Camphene, camphene]
Outgoing: 96.5

----------
Target: DtabGOBP1 (Dendrolimus tabulaeformis)
Sequence (A0A059PCQ9 entry or part of it): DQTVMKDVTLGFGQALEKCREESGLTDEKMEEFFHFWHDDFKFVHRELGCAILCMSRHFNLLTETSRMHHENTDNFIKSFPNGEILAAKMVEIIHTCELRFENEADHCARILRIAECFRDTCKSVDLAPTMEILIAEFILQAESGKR
Test: Competitive fluorescence binding assay (displacement of 1-NPN), DtabGOBP1
Conditions: DtabGOBP1; calculated from IC50 of 1-NPN displacement; read-out: KD±SE
MEASUREMENT_NAME: Kd (nM)
Could you give me the number in nM? Just the number is fine.

Incoming: What value of measured Kd is listed for CCCC/C=C/C=C\CCCCOC(=O)CC [Z5,E7-12:OPr, (5Z,7E)-5,7-dodecadien-1-yl propionate] ?
Outgoing: 1900

----------
Biological target: DtabPBP1 (Dendrolimus tabulaeformis, UniProt A0A059PCM8)
Sequence (A0A059PCM8 entry or part of it): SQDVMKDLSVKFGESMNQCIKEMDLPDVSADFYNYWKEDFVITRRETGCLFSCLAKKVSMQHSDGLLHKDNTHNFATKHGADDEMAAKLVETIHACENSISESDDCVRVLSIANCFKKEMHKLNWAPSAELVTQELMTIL
MEASUREMENT_NAME: pKi
Lab note: report pKi as minus log10 of the concentration in molar units, number only.

Incoming: What value of measured pKi is listed for CCCC/C=C/C=C\CCCCOC(=O)CC [Z5,E7-12:OPr, (5Z,7E)-5,7-dodecadien-1-yl propionate] ?
Outgoing: 5.44

----------
Biological target: DtabGOBP1 (Dendrolimus tabulaeformis)
Assay: Competitive fluorescence binding assay (displacement of 1-NPN), DtabGOBP1
Settings: pH 7.4, read-out: %of max±SE
Description: Emission fluorescence spectra were performed on an F-4500 fluorescence Spectrophotometer (Hitachi, Japan) at 25 °C with a 1 cm light path quartz cuvette and 5 nm slits for both excitation and emission. […] The fluorescence of the mixture was recorded after 5 min to allow the signal to stabilize. […] To understand the ligand binding properties of the three OBPs, we prepared the recombinant proteins. […] The probe was excited at 337 nm, and emission spectra were recorded between 380 and 450 nm. […]
Field: activity at 16 µM. Provide a value for each of the compounds that follow.
Could you give me the number in %? Just the number is fine.

Incoming: What value of measured activity at 16 µM is listed for C=C1C2CCC(C2)C1(C)C (stereo not shown) ?
Outgoing: 96.7

Incoming: Also check CC1=CCC(C(C)C)=CC1
Outgoing: 71.8

Incoming: Also check CC1=CC=C(C(C)C)CC1
Outgoing: 81.8

Incoming: Also check CC/C=C\CCO [(Z)-3-Hexen-1-ol, (Z)-3-hexen-1-ol]
Outgoing: 96.5
